molecular target: human OX1R (Homo sapiens, UniProt O43613); construct: expressed in transfected cells; host or cells: CHO (Chinese hamster ovary) cells, line CHOOX1R, co-expressing NFAT-luciferase; assay: Agonist activity against OX1R: intracellular calcium (Fura-2AM, FDSS7000) in CHOOX1R cells; assay type: cell-based; conditions: test compound 10 μM; relative to orexin-A as full agonist (100%)
Sequence (O43613 whole entry): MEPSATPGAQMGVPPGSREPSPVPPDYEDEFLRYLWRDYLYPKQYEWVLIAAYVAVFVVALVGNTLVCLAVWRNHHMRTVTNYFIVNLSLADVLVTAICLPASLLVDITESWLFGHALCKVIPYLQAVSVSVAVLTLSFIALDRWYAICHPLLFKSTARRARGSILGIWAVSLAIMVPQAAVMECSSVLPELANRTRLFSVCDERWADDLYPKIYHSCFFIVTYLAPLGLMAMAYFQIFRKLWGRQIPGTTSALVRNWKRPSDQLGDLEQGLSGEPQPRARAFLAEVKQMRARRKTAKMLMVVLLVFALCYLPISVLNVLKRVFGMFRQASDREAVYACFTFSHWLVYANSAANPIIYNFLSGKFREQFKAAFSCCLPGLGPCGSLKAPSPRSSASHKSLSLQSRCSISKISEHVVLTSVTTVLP
Items are presented alongside their recorded Response (%) OX1R.
Quantity Name: Response (%) OX1R

Item Smiles	Modifier Sign	Measured Number
COc1ccc(C(=O)NCc2cccnc2)cc1S(=O)(=O)Nc1cccc(NC(=O)Nc2ccc(N(C)C)cc2)c1	=	7
CN(C)C(=O)c1cccc(-c2ccc(O)c(S(=O)(=O)Nc3cccc(NC(=O)Nc4cccc(N(C)C)c4)c3)c2)c1	<	5
COc1ccc(-c2cccc(C(=O)N(C)C)c2)cc1S(=O)(=O)Nc1ccc(NC(=O)Nc2cccc(N(C)C)c2)cc1	<	5
COc1ccc(-c2cccc(C(=O)N(C)C)c2)cc1S(=O)(=O)Nc1cccc(N)c1	=	9
COc1ccc(-c2cccc(C(=O)N(C)C)c2)cc1S(=O)(=O)Nc1cccc(NS(=O)(=O)c2cccc(Br)c2)c1	<	5
CCN(Cc1ccccc1)C(=O)c1ccc(OC)c(S(=O)(=O)Nc2cccc(NC(=O)Nc3cccc(N(C)C)c3)c2)c1	<	5
COc1ccc(-c2cccc(C(=O)N(C)C)c2)cc1S(=O)(=O)Nc1cccc(N2CCCCN(c3cccc(N(C)C)c3)C2=O)c1	=	110
